Please go through the items and note down their CONFIRMATORY SCREEN Curve Class.
Tested system: CIB1 and αIIb interaction (CIB1-GST : F-αIIb peptide) (Homo sapiens, UniProt Q99828)
Construct: made in house; host or cells: BL-21 plus RIL cells (E. coli)
Sequence (Q99828 whole entry): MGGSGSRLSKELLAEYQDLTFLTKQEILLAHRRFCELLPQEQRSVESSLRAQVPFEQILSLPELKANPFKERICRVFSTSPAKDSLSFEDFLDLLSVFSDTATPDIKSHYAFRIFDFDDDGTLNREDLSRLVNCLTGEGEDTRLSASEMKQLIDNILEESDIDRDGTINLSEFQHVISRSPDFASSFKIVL
Experimental details: FP assay, 1536-well qHTS format (primary and confirmatory screen)
Assay type: binding
Condition context: confirmatory screen, qHTS curve class; negative sign = inhibitory curve
One number for each entry.

compound="Cc1cc(NS(=O)(=O)c2ccc(NCCc3ccc(Cl)c(Cl)c3)cc2)no1.O=C(O)C(F)(F)F [NCGC00244100-02]" observed_value=-2.4

Look up CONFIRMATORY SCREEN Curve Class for the entries below, preserving their order.
1. Cc1ccc(S(=O)(=O)Nc2cnccc2C(=O)Nc2nc3ccccc3s2)cc1.O=C(O)C(F)(F)F [NCGC00343897-01]
2. Cc1cc(Nc2c(Nc3nnc(-c4ccncc4)s3)c(=O)c2=O)ccc1Cl.O=C(O)C(F)(F)F [NCGC00241510-01]

Result ::
1: -1.4; 2: -1.4

Look up CONFIRMATORY SCREEN Curve Class for the entries below, preserving their order.
1. CCC(OC(=O)c1ccc(S(C)(=O)=O)c([N+](=O)[O-])c1)C(=O)NC1C2CC3CC(C2)CC1C3 (centres unmarked) [NCGC00188536-01]
2. Cc1ccc(C)n1-c1cccc(C(=O)O)c1.O=C(O)C(F)(F)F [NCGC00060597-02]
3. CC(C)=CCC[C@]1(C)C=Cc2c(O)c3c(c(CC=C(C)C)c2O1)O[C@]12C(=C[C@@H]4CC1C(C)(C)O[C@@]2(C/C=C(/C)C(=O)O)C4=O)C3=O [NCGC00485239-01]
4. CC(C)NC(=S)N/N=C1\C(=O)Nc2ccccc21.O=C(O)C(F)(F)F [NCGC00229535-01]
5. Cc1ccccc1C(=O)c1no[n+]([O-])c1C(=O)c1ccccc1C.O=C(O)C(F)(F)F [NCGC00351166-01]

Result ::
[-1.4, -1.2, -1.2, -1.4, -1.4]

* * *

Please go through the items and note down their pIC50.
Tested system: CIB1 and αIIb interaction (CIB1-GST : F-αIIb peptide) (Homo sapiens)
Construct: made in house; host or cells: BL-21 plus RIL cells (E. coli)
Experimental details: FP assay, 1536-well qHTS format (primary and confirmatory screen)
Type: binding
Condition context: qHTS primary screen of LOPAC/NPACT libraries; read-out: IC50
Give bare numbers, as −log10 of the molar value.

Examples from the recorded data:
molecule=COc1cc(O)c2c(c1)/C=C/C[C@H](O)[C@H](O)C(=O)/C=C\C[C@H](C)OC2=O observed_value=4.60
molecule=O=[N+]([O-])/C=C/c1ccc2c(c1)OCO2 observed_value=4.25
molecule=CC(=O)N[C@@H](Cc1c[nH]c2ccccc12)C(=O)OCc1cc(C(F)(F)F)cc(C(F)(F)F)c1 observed_value=4.40

Look up pIC50 for the entries below, preserving their order.
1. C=C1C(=O)O[C@@H]2C/C(C)=C\C(=O)/C=C(\C)[C@@H](OC(=O)/C(C)=C\C)[C@H](O)[C@@H]12
2. COc1cc(/C=C(\C#N)C(=O)Nc2nnc(C(F)(F)F)s2)ccc1OCc1ccc(C(F)(F)F)cc1C(F)(F)F
3. C=C1CC2OC(=O)C(=C)C2C(OC(=O)/C(C)=C\C)CC2(C)OC1=CC2=O (centres unmarked)
4. Cc1cc(OCCCS(C)(=O)=O)cc(C)c1-c1cccc(COc2ccc(-c3cc(=O)[nH][s+]3[O-])cc2)c1 (centres unmarked)
5. N#C/C(=C\c1ccc(O)c(O)c1)C(=O)NCCc1ccccc1
6. Cc1cc(-c2cc(O)ccc2Cl)cc2nnc(Nc3ccc(OCCN4CCCC4)cc3)nc12.Cl
7. Cc1nc2sccn2c(=O)c1CCN1CCC(=C(c2ccc(F)cc2)c2ccc(F)cc2)CC1
8. C=C1C(=O)O[C@H]2C3=C(C)CCC[C@]3(C)C(=O)C[C@@H]12

Result ::
5.35
5.25
4.95
5.40
5.10
4.25
4.25
4.25
